Test system: SK-MEL-5
Assay: NCI tumour cell line growth inhibition, 48 h
Activity calls are given as the source filed them. Cut-off read from the data, not from the text of the source: active = GI50 up to about 1.1 µM and inactive = higher.
Give one outcome, nothing more. List: active, inactive

Recorded results for 2 compounds are shown here.
{"compound": "CN(/N=C/C=N/N(C)C1=NCCN1)C1=NCCN1", "system.name": "SK-MEL-5", "qualitative.label": "inactive"}
{"compound": "C=C(CCC(=O)N(CCc1c[nH]c2ccccc12)C(=O)c1ccccc1CSCC)C(=O)OC", "system.name": "SK-MEL-5", "qualitative.label": "inactive"}

*Q* Record lookup: outcome of this test for COc1ccc(/C=C2\C(=O)N(C3OC(COC(C)=O)C(OC(C)=O)C(OC(C)=O)C3OC(C)=O)c3ccccc3N=C2N)cc1 (stereo unspecified) ?
*A* inactive

*Q* Assay outcome for O=C(CCC(=O)Nc1ccc(Cl)cc1)CC(=O)c1ccc2ccccc2c1 : what was it?
*A* inactive

*Q* Check the results log: what was the call for COC(=O)CCC(=O)NC1=C(Nc2ccc(OC)cc2)C(=O)c2ccccc2C1=O ?
*A* inactive
